# ASSAY_SYSTEM: D(1A) dopamine receptor (Rattus norvegicus)
# Sequence (P18901 whole entry): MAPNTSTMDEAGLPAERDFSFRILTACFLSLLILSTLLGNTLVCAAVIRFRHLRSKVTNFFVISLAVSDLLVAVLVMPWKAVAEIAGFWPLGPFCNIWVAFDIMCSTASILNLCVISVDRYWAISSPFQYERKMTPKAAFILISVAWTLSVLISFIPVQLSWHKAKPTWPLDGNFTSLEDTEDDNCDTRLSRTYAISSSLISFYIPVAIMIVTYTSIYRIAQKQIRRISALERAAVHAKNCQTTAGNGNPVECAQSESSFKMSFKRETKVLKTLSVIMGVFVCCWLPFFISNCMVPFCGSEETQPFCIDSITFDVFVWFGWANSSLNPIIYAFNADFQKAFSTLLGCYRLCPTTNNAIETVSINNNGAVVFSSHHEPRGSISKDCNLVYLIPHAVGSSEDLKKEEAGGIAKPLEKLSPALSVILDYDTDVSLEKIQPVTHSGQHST
# ASSAY_INFO: The ability to inhibit [3H]-SCH- 23390 binding to Dopamine receptor D1 in rat striata

{"COMPOUND": "COc1cc(N)c(Cl)cc1C(=O)NC[C@@H]1CCN2CCC[C@@H]12 (relative stereo)", "Ki": "> 10 µM"}
{"COMPOUND": "COc1cc(N)c(Cl)cc1C(=O)NC1CCN2CCCC1C2 (stereo not given) [RENZAPRIDE]", "Ki": "> 10 µM"}
{"COMPOUND": "COc1cc(N)c(Cl)cc1C(=O)NC1CCN(CCCOc2ccc(F)cc2)CC1OC (stereo not given) [CISAPRIDE]", "Ki": "1.7 µM"}
{"COMPOUND": "COc1cc(N)c(Cl)cc1C(=O)N[C@H]1CN2CCC1CC2 [(R)ZACOPRIDE]", "Ki": "> 10 µM"}
{"COMPOUND": "CC(C)n1c(=O)n(C(=O)CC2CC3CCC(C2)N3C)c2ccccc21 (stereo not given)", "Ki": "> 10 µM"}

* * *

# ASSAY_SYSTEM: Serotonin 3 (5-HT3) receptor (Rattus norvegicus, UniProt P35563+Q9JJ16)
# ASSAY_INFO: The ability to inhibit [3H]GR-65630 binding to 5-hydroxytryptamine 3 receptor in rat brain cortices
# Format: tissue-based

{"COMPOUND": "CC(C)n1c(=O)n(C(=O)CC2CC3CCC(C2)N3C)c2ccccc21 (stereo unspecified)", "ASSAY_SYSTEM": "Serotonin 3 (5-HT3) receptor (Rattus norvegicus, UniProt P35563+Q9JJ16)", "Ki": "> 10 µM"}

* * *

# ASSAY_INFO: %E relative to serotonin is 100%
# Type: functional
Below is a list of entries, each paired with its recorded E value.
OUTCOME_MEASURE: E (%)

{"COMPOUND": "COc1cc(N)c(Cl)cc1C(=O)N[C@H]1CN2CCC1CC2 [(R)ZACOPRIDE]", "RESULT_QUALIFIER": "=", "QUANTITATIVE_READOUT": 96}
{"COMPOUND": "COc1cc(N)c(Cl)cc1C(=O)NC[C@@H]1CCN2CCC[C@@H]12 (relative stereo)", "RESULT_QUALIFIER": "=", "QUANTITATIVE_READOUT": 93}
{"COMPOUND": "COc1cc(N)c(Cl)cc1C(=O)NC1CCN2CCCC1C2 (stereo not given) [RENZAPRIDE]", "RESULT_QUALIFIER": "=", "QUANTITATIVE_READOUT": 98}
{"COMPOUND": "CC(C)n1c(=O)n(C(=O)CC2CC3CCC(C2)N3C)c2ccccc21 (stereo not given)", "RESULT_QUALIFIER": ">", "QUANTITATIVE_READOUT": 111}
{"COMPOUND": "COc1cc(N)c(Cl)cc1C(=O)NC1CCN(CCCOc2ccc(F)cc2)CC1OC (stereo not given) [CISAPRIDE]", "RESULT_QUALIFIER": "=", "QUANTITATIVE_READOUT": 105}

* * *

# ASSAY_SYSTEM: 5-hydroxytryptamine receptor 4 (Rattus norvegicus) (UniProt Q62758)
# Sequence (Q62758 whole entry): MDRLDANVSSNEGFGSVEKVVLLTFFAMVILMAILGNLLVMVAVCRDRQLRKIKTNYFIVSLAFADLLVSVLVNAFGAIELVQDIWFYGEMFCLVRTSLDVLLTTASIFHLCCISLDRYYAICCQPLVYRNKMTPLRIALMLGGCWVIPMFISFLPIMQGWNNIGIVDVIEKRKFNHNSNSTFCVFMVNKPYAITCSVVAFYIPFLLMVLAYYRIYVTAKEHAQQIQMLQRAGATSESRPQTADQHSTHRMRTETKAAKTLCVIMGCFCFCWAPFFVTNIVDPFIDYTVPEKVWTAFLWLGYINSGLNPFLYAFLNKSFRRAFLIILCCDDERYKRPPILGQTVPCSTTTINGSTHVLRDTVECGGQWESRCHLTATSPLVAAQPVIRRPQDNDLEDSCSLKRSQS
# ASSAY_INFO: Relaxation of carbachol induced contractions of rat tunica muscularis mucosae
OUTCOME_MEASURE: ED50 (nM)

{"MOLECULE": "CCOc1cc(N)c(Cl)cc1C(=O)NC1CCN2CCCC12 (stereo in doubt; 1G)", "SCALE_UNIT": "nM", "RESULT_QUALIFIER": "=", "QUANTITATIVE_READOUT": 2270}
{"MOLECULE": "COc1cc(N)c(Cl)cc1C(=O)NC1CCN2CCCC12 (stereo in doubt; 1F)", "SCALE_UNIT": "nM", "RESULT_QUALIFIER": "=", "QUANTITATIVE_READOUT": 187}
{"MOLECULE": "CCN(CC)CCNC(=O)c1cc(Cl)c(N)cc1OC [METOCLOPRAMIDE]", "SCALE_UNIT": "nM", "RESULT_QUALIFIER": "=", "QUANTITATIVE_READOUT": 24100}
{"MOLECULE": "CCOc1cc(N)c(Cl)cc1C(=O)NC1CCN2CCCC12 (stereo in doubt; 1K)", "SCALE_UNIT": "nM", "RESULT_QUALIFIER": ">", "QUANTITATIVE_READOUT": 10000}
{"MOLECULE": "COc1cc(N)c(Cl)cc1C(=O)NCC1CCN2CCCC12 (stereo in doubt; 1A)", "SCALE_UNIT": "nM", "RESULT_QUALIFIER": "=", "QUANTITATIVE_READOUT": 64}
{"MOLECULE": "NCCc1c[nH]c2ccc(O)cc12", "SCALE_UNIT": "nM", "RESULT_QUALIFIER": "=", "QUANTITATIVE_READOUT": 16}
{"MOLECULE": "COc1cc(N)c(Cl)cc1C(=O)NC1CCN2CCCC12 (stereo in doubt; 1J)", "SCALE_UNIT": "nM", "RESULT_QUALIFIER": "=", "QUANTITATIVE_READOUT": 3450}
{"MOLECULE": "COc1cc(N)c(Cl)cc1C(=O)NCC1CCN2CCCC12 (stereo in doubt; 1E)", "SCALE_UNIT": "nM", "RESULT_QUALIFIER": "=", "QUANTITATIVE_READOUT": 280}
{"MOLECULE": "COc1cc(N)c(Cl)cc1C(=O)NC[C@@H]1CCN2CCC[C@@H]12 (relative stereo)", "SCALE_UNIT": "nM", "RESULT_QUALIFIER": "=", "QUANTITATIVE_READOUT": 23}
{"MOLECULE": "CC(C)n1c(=O)n(C(=O)CC2CC3CCC(C2)N3C)c2ccccc21 (stereo unspecified)", "SCALE_UNIT": "nM", "RESULT_QUALIFIER": "=", "QUANTITATIVE_READOUT": 40.2}
{"MOLECULE": "CCOc1cc(N)c(Cl)cc1C(=O)NCC1CCN2CCCC12 (stereo unspecified)", "SCALE_UNIT": "nM", "RESULT_QUALIFIER": "=", "QUANTITATIVE_READOUT": 1380}
{"MOLECULE": "COc1cc(N)c(Cl)cc1C(=O)N[C@H]1CN2CCC1CC2 [(R)ZACOPRIDE]", "SCALE_UNIT": "nM", "RESULT_QUALIFIER": "=", "QUANTITATIVE_READOUT": 505}
{"MOLECULE": "COc1cc(N)c(Cl)cc1C(=O)NC[C@H]1CCN2CCC[C@H]12", "SCALE_UNIT": "nM", "RESULT_QUALIFIER": "=", "QUANTITATIVE_READOUT": 323}
{"MOLECULE": "O=C(NC1CCN2CCCC12)c1ccccc1 (stereo unspecified)", "SCALE_UNIT": "nM", "RESULT_QUALIFIER": ">", "QUANTITATIVE_READOUT": 10000}
{"MOLECULE": "COc1cc(N)c(Cl)cc1C(=O)NC1CCN(CCCOc2ccc(F)cc2)CC1OC (stereo unspecified) [CISAPRIDE]", "SCALE_UNIT": "nM", "RESULT_QUALIFIER": "=", "QUANTITATIVE_READOUT": 54.7}
{"MOLECULE": "COc1cc(N)c(Cl)cc1C(=O)NC1CCN2CCCC1C2 (stereo unspecified) [RENZAPRIDE]", "SCALE_UNIT": "nM", "RESULT_QUALIFIER": "=", "QUANTITATIVE_READOUT": 44}

* * *

The following molecules are listed with their measured Ki values.
# ASSAY_SYSTEM: Serotonin 3 (5-HT3) receptor (Rattus norvegicus, UniProt P35563+Q9JJ16)
# Sequence (P35563 whole entry): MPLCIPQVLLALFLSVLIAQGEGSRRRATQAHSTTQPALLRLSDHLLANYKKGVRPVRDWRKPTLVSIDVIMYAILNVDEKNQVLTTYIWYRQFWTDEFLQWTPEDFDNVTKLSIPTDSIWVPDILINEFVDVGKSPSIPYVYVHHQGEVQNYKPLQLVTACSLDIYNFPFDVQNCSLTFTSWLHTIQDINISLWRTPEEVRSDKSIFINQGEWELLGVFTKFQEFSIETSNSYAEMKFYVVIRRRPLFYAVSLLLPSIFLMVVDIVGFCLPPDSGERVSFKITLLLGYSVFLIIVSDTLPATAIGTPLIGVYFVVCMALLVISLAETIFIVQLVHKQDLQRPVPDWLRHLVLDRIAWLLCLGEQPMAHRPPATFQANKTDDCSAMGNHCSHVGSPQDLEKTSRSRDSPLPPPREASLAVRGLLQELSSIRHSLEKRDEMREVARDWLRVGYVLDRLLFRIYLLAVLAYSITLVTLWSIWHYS
# Sequence (Q9JJ16 whole entry): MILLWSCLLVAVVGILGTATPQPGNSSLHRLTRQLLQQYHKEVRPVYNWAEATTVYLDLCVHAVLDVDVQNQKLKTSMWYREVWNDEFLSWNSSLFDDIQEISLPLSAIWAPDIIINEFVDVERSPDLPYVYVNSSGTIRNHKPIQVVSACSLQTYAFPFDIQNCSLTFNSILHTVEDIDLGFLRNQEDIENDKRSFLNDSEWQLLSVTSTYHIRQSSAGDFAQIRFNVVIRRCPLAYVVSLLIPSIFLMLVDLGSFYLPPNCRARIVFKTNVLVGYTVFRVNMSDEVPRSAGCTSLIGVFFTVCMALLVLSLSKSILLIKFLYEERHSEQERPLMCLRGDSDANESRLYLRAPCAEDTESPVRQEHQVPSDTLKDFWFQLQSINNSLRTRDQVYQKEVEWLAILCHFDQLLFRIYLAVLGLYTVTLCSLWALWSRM
# ASSAY_INFO: Inhibition of [3H]GR-65630 binding to 5-hydroxytryptamine 3 receptor
# Type: protein-complex assay

{"MOLECULE": "COc1cc(N)c(Cl)cc1C(=O)N[C@H]1CN2CCC1CC2 [(R)ZACOPRIDE]", "RESULT_QUALIFIER": "=", "Ki (nM)": 8}
{"MOLECULE": "CCOc1cc(N)c(Cl)cc1C(=O)NCC1CCN2CCCC12 (configuration not stated)", "RESULT_QUALIFIER": "=", "Ki (nM)": 25}
{"MOLECULE": "COc1cc(N)c(Cl)cc1C(=O)NC1CCN2CCCC12 (stereo in doubt; 1F)", "RESULT_QUALIFIER": "=", "Ki (nM)": 14}
{"MOLECULE": "COc1cc(N)c(Cl)cc1C(=O)NC[C@H]1CCN2CCC[C@H]12", "RESULT_QUALIFIER": "=", "Ki (nM)": 66}
{"MOLECULE": "COc1cc(N)c(Cl)cc1C(=O)NCC1CCN2CCCC12 (stereo in doubt; 1A)", "RESULT_QUALIFIER": "=", "Ki (nM)": 104}
{"MOLECULE": "COc1cc(N)c(Cl)cc1C(=O)NC1CCN2CCCC12 (stereo in doubt; 1J)", "RESULT_QUALIFIER": "=", "Ki (nM)": 96}
{"MOLECULE": "O=C(NC1CCN2CCCC12)c1ccccc1 (configuration not stated)", "RESULT_QUALIFIER": ">", "Ki (nM)": 200}
{"MOLECULE": "CCN(CC)CCNC(=O)c1cc(Cl)c(N)cc1OC [METOCLOPRAMIDE]", "RESULT_QUALIFIER": "=", "Ki (nM)": 240}
{"MOLECULE": "COc1cc(N)c(Cl)cc1C(=O)NCC1CCN2CCCC12 (stereo in doubt; 1E)", "RESULT_QUALIFIER": "=", "Ki (nM)": 278}
{"MOLECULE": "CCOc1cc(N)c(Cl)cc1C(=O)NC1CCN2CCCC12 (stereo in doubt; 1G)", "RESULT_QUALIFIER": "=", "Ki (nM)": 8}
{"MOLECULE": "COc1cc(N)c(Cl)cc1C(=O)NC[C@@H]1CCN2CCC[C@@H]12 (relative stereo)", "RESULT_QUALIFIER": "=", "Ki (nM)": 152}
{"MOLECULE": "CCOc1cc(N)c(Cl)cc1C(=O)NC1CCN2CCCC12 (stereo in doubt; 1K)", "RESULT_QUALIFIER": "=", "Ki (nM)": 99}
